The reader will find reported pKi values listed item by item below.
- assayed_system: α7 nAChR (Rattus norvegicus)
- experiment_notes: [3H]-MLA competition binding assay, rat brain membranes
- particulars: Ki, inhibition of [3H]-MLA binding (3.0 to 4.0 nM), Sprague-Dawley rat whole brain minus cerebellum homogenate, 1 hour at 25° C
pKi: −log10 of the molar value. Where a name gives a salt, the structure may show the parent alone.

compound: O=C(N[C@H]1CN2CCC1CC2)c1ccc(-c2cccc(C(F)(F)F)c2)o1 [Example 109, fumarate]
pKi: 8.22 to 8.82

compound: O=C(N[C@H]1CN2CCC1CC2)c1cnc(-c2cccc(F)c2)s1 [Example 53, 4-methylbenzenesulfonate]
pKi: 5.71 to 5.72

compound: O=C(N[C@H]1CN2CCC1CC2)c1ccc(-c2ccsc2)s1 [Example 5, hydrochloride]
pKi: 7.82 to 8.05

Kindly review the next compound as well.
// pKi lookup, compound = O=C(N[C@H]1CN2CCC1CC2)c1cnc(-c2ccccc2O)s1 [Example 55, hydrochloride] , result: 7.15 to 7.22

* * *

Some molecules, each annotated with its measured Ki.
- assayed_system: α7 nAChR (Rattus norvegicus)
- experiment_notes: [3H]-MLA competition binding assay, rat brain membranes
- particulars: Ki, inhibition of [3H]-MLA binding (3.0 to 4.0 nM), Sprague-Dawley rat whole brain minus cerebellum homogenate, 1 hour at 25° C
Counter-ions that a name gives are not always drawn.

molecule: O=C(N[C@H]1CN2CCC1CC2)c1ccc(-c2cccc([N+](=O)[O-])c2)s1
Ki: 25 to 30 nM
--
molecule: Cn1c(C(=O)N[C@H]2CN3CCC2CC3)ccc1-c1ccccc1
Ki: 20 to 65 nM
--
molecule: O=C(N[C@H]1CN2CCC1CC2)c1ccc(-c2ccc(Cl)cc2)s1 [Example 2, hydrochloride]
Ki: 110 nM
--
molecule: O=C(N[C@H]1CN2CCC1CC2)c1ccc(Oc2ccccc2)s1 [Example 40, Hydrochloride]
Ki: 12 to 16 nM

Form field Ki, entry Cc1ccccc1-c1ccc(C(=O)N[C@H]2CN3CCC2CC3)o1 [Example 135, 4-methylbenzenesulfonate] : 16 to 45 nM

So for O=C(N[C@H]1CN2CCC1CC2)c1ccc(-c2cccc(Cl)c2)o1 , the logged Ki turned out to be 90 nM

Measured Ki of O=C(N[C@H]1CN2CCC1CC2)c1ccc(-c2cc3ccccc3o2)o1 [Example 146, 4-methylbenzenesulfonate] : 35 to 140 nM

# Ki of O=C(N[C@H]1CN2CCC1CC2)c1ccc(-c2cccc(F)c2)o1 [Example 114, 4-methylbenzenesulfonate] = 135 nM

The molecule identified as O=C(N[C@H]1CN2CCC1CC2)c1ccc(Br)s1 registered its Ki at 5 to 20 nM

Reported Ki ( O=C(N[C@H]1CN2CCC1CC2)c1ccc(-c2cccs2)s1 ) = 1 to 2 nM

// Ki value for O=C(N[C@H]1CN2CCC1CC2)c1ccc(-c2ccccc2O)s1 [Example 41, Hydrochloride] : 34 nM

Value of measured Ki for the entry COc1ccccc1-c1cnc(C(=O)N[C@H]2CN3CCC2CC3)s1 [Example 96, 4-methylbenzenesulfonate] : 95 to 110 nM

Measured Ki, O=C(N[C@H]1CN2CCC1CC2)c1ccc(-c2ccccc2)o1 [Example 103, 4-Methylbenzenesulfonate] : 17 to 50 nM

What the record says about O=C(N[C@H]1CN2CCC1CC2)c1ccc(-c2ccccc2OC(F)(F)F)o1 [Example 138, 4-methylbenzenesulfonate] : Ki is 525 to 590 nM

The molecule COc1cccc(-c2cnc(C(=O)N[C@H]3CN4CCC3CC4)o2)c1 [Example 80, 4-methylbenzenesulfonate] showed Ki equal to 50 to 60 nM

The molecule O=C(N[C@H]1CN2CCC1CC2)c1ncc(-c2ccc(F)cc2)o1 [Example 85, 4-methylbenzenesulfonate] showed Ki equal to 30 to 40 nM

* * *

Some molecules, each annotated with its measured pKi.
- assayed_system: α7 nAChR (Rattus norvegicus, UniProt Q05941)
- Sequence (Q05941 23-502): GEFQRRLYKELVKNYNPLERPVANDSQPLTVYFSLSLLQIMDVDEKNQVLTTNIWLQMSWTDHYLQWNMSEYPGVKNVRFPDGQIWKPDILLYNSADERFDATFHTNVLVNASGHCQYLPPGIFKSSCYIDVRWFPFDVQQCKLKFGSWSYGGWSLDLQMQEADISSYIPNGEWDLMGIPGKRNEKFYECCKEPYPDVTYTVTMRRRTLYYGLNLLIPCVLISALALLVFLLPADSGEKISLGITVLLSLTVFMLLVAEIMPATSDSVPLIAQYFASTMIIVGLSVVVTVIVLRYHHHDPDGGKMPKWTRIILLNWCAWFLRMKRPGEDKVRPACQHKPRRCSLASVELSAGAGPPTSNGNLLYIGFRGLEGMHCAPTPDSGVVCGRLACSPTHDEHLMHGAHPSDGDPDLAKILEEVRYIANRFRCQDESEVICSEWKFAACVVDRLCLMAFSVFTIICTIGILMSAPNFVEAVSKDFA
- experiment_notes: [3H]-MLA competition binding assay, rat brain membranes
- particulars: Ki, inhibition of [3H]-MLA binding (3.0 to 4.0 nM), Sprague-Dawley rat whole brain minus cerebellum homogenate, 1 hour at 25° C
pKi: −log10 of the molar value. Where a name gives a salt, the structure may show the parent alone.

Worked cases, answers included:
molecule: O=C(N[C@H]1CN2CCC1CC2)c1ccc(-c2cccc(OC(F)(F)F)c2)o1 [Example 120, 4-methylbenzenesulfonate]
experimental_result: 5.98
--
molecule: O=C(N[C@H]1CN2CCC1CC2)c1ccc(-c2cccc(OCc3ccccc3)c2)s1 [Example 9, hydrochloride]
experimental_result: 6.24 to 6.27
--
molecule: O=C(N[C@H]1CN2CCC1CC2)c1ncc(-c2cccc(Cl)c2)o1 [Example 79, 4-Methylbenzenesulfonate]
experimental_result: 7.12 to 7.70
--
molecule: CSc1ccc(C(=O)N[C@H]2CN3CCC2CC3)s1
experimental_result: 8.22 to 9.00
--
molecule: COc1ccc(C(=O)N[C@H]2CN3CCC2CC3)s1 [Example 19, Hydrochloride]
experimental_result: 7.62
--
molecule: N#Cc1ccc(C(=O)N[C@H]2CN3CCC2CC3)s1 [Example 18, Hydrochloride]
experimental_result: 6.54 to 6.62
--
molecule: NCc1ccc(C(=O)N[C@H]2CN3CCC2CC3)s1 [Example 17, Dihydrochloride]
experimental_result: 6.41 to 6.59
--
molecule: Nc1ccccc1-c1ccc(C(=O)N[C@H]2CN3CCC2CC3)o1 [Example 147, bis(4-Methylbenzenesulfonate)]
experimental_result: 8.52 to 8.70

pKi recorded for this molecule, O=C(N[C@H]1CN2CCC1CC2)c1ccc(-c2ccc(Cl)s2)s1 [Example 15, Hydrochloride] , is 7.05 to 7.40

The molecule identified as O=C(N[C@H]1CN2CCC1CC2)c1ncc(-c2ccc(Br)cc2)o1 [Example 88, 4-methylbenzenesulfonate] registered its pKi at 7.10 to 7.19

Data point: O=C(N[C@H]1CN2CCC1CC2)c1ncc(-c2ccc(F)cc2)s1 [Example 95, 4-methylbenzenesulfonate] ; pKi = 5.96

The recorded pKi for entry O=C(N[C@H]1CN2CCC1CC2)c1ccc(-c2cccc(Cl)c2)s1 [Example 3, hydrochloride] equals 6.80 to 7.02

Record CC(C)(C)c1ccc(-c2ccc(C(=O)N[C@H]3CN4CCC3CC4)o2)cc1 [Example 140, 4-methylbenzenesulfonate] , field pKi: 7.19 to 7.46

Value of measured pKi for the entry O=C(N[C@H]1CN2CCC1CC2)c1ccc(-c2ccccc2F)o1 [Example 113, 4-methylbenzenesulfonate] : 6.90 to 7.05

The value of pKi measured for the molecule O=C(N[C@H]1CN2CCC1CC2)c1ncc(-c2cccc([N+](=O)[O-])c2)o1 [Example 81, 4-methylbenzenesulfonate] turned out to be 6.76 to 7.26

* * *

- assayed_system: α7 nAChR (Rattus norvegicus, UniProt Q05941)
- experiment_notes: [3H]-MLA competition binding assay, rat brain membranes
- particulars: Ki, inhibition of [3H]-MLA binding (3.0 to 4.0 nM), Sprague-Dawley rat whole brain minus cerebellum homogenate, 1 hour at 25° C
pKi: −log10 of the molar value. Structures can show the parent of a compound that is named as a salt.
Measured pKi by item

The examples below pair each entry with its known result.
molecule: COc1ccc(-c2ccc(C(=O)N[C@H]3CN4CCC3CC4)o2)cc1 [Example 134, hydrochloride]
assayed_system: α7 nAChR (Rattus norvegicus, UniProt Q05941)
experimental_result: 7.00 to 7.22

molecule: O=C(N[C@H]1CN2CCC1CC2)c1ccc(Oc2ccccc2)o1 [Example 151, 4-Methylbenzenesulfonate]
assayed_system: α7 nAChR (Rattus norvegicus, UniProt Q05941)
experimental_result: 6.08 to 6.65

molecule: O=C(N[C@H]1CN2CCC1CC2)c1ccc(-c2ccc(F)c(F)c2)o1 [Example 132, hydrochloride]
assayed_system: α7 nAChR (Rattus norvegicus, UniProt Q05941)
experimental_result: 5.68 to 6.06

# ---- query molecule ----
Measured pKi of O=C(N[C@H]1CN2CCC1CC2)c1cnc(-c2ccccc2)s1 [Example 50, Fumarate] : 6.25 to 7.17

* * *

- assayed_system: α7 nAChR (Rattus norvegicus, UniProt Q05941)
- experiment_notes: [3H]-MLA competition binding assay, rat brain membranes
- particulars: Ki, inhibition of [3H]-MLA binding (3.0 to 4.0 nM), Sprague-Dawley rat whole brain minus cerebellum homogenate, 1 hour at 25° C
Where a name gives a salt, the structure may show the parent alone.
Collected Ki values appear next to each entry.

molecule: O=C(N[C@H]1CN2CCC1CC2)c1ccc(-c2ccccc2)s1 [Example 1, Hydrochloride]
experimental_result: 13 to 33 nM

Record O=C(N[C@H]1CN2CCC1CC2)c1ccc(Sc2ccc(F)cc2F)s1 [Example 34, hydrochloride] . Reported Ki: 30 to 39 nM

Query O=C(N[C@H]1CN2CCC1CC2)c1ncc(-c2ccccc2)s1 yields Ki of 80 to 150 nM

Ki measured on O=C(N[C@H]1CN2CCC1CC2)c1ccc(-c2ccccc2C(F)(F)F)o1 [Example 108, fumarate] = 415 to 560 nM

The recorded Ki for O=C(N[C@H]1CN2CCC1CC2)c1ccc(Cl)s1 is 6 to 10 nM

Reported Ki of Cc1cnc(C(=O)N[C@H]2CN3CCC2CC3)s1 [Example 98, 4-methylbenzenesulfonate] : 50 to 80 nM

The value of Ki measured for the molecule O=C(N[C@H]1CN2CCC1CC2)c1ncc(-c2ccccc2)o1 [Example 153, 4-methylbenzenesulfonate] turned out to be 1550 nM

Recorded Ki (molecule Cc1ccc(-c2ccc(C(=O)N[C@H]3CN4CCC3CC4)s2)s1 [Example 14, Hydrochloride] ): 12 to 16 nM
